All values here come from patent US20110002843A1.

Experimental Details: Single-dose pharmacokinetics, safety and tolerability of 10-minute intravenous infusion in healthy volunteers
Assay type: in vivo, human
Condition: human, plasma, 0.4 ug/kg; 0.4 μg/kg iv over 10 minutes; read-out: Vz, mean (SD)
Procedure: Subjects: This study was conducted at the New Orleans Center for Clinical Research, New Orleans, La., in accordance with US Good Clinical Practice guidelines. Subjects were required to be in generally good health as determined by physical examination and laboratory testing, as well as assessment of vital signs. […] A total of 40 to 42 blood samples were collected during the treatment phase for quantitation of binodenoson in plasma. […]

- Compound: "Nc1nc(N/N=C/C2CCCCC2)nc2c1ncn2[C@@H]1O[C@H](CO)[C@@H](O)[C@H]1O (stereo in doubt)"
  Unit Name: "L/kg"
  Vd: 0.39
